All figures here come from patent US20090203577A1.

Biological target: human farnesoid X receptor (Homo sapiens)
Construct: CMX-farnesoid X receptor (full length human farnesoid X receptor); expressed in transfected cells; host or cells: CV-1 African Green Monkey Kidney cells
Sequence (Q96RI1 1-472 isoform Q96RI1-2): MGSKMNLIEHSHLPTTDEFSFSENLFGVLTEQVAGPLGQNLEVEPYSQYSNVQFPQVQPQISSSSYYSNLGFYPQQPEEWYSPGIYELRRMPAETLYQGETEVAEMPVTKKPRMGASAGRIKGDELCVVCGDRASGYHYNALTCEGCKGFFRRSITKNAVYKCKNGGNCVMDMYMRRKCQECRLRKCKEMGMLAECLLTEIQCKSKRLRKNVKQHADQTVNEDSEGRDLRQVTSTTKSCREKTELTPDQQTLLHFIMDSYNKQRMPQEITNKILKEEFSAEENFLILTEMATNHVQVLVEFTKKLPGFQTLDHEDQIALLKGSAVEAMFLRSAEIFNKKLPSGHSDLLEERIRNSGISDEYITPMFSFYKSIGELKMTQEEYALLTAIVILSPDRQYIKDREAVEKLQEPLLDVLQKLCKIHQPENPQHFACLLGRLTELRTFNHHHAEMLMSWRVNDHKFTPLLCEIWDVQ
Sequence (P19793 whole entry partner): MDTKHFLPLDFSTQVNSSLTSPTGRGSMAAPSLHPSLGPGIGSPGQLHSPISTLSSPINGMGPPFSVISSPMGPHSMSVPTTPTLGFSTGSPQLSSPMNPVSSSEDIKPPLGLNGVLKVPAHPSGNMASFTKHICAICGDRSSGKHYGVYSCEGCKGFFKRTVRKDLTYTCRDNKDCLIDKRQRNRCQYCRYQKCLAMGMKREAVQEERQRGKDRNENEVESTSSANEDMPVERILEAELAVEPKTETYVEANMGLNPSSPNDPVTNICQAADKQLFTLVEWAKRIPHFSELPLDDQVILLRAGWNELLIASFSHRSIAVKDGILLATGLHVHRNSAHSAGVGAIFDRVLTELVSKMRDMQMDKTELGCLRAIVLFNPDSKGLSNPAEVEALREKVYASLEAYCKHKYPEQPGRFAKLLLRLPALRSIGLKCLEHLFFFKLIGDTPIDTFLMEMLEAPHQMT
Assay: FXR in vitro assays (farnesoid X receptor/ECREx7 co-transfection assay, TR-FRET assay), Table I
Format: cell-based
Conditions: read-out: % Efficacy

{"COMPOUND": "CCN1CCN(Cc2cccc(C(=O)N3C=C(C(=O)OC(C)C)c4[nH]c5ccccc5c4C(C)(C)C3)c2)CC1 [Example 120]", "Emax": "> 100%"}
{"COMPOUND": "CC(C)OC(=O)C1=CN(C(=O)c2cc(F)c(F)c(OCCN3CCCCC3)c2)CC(C)(C)c2c1[nH]c1ccccc21 [Example 180]", "Emax": "> 100%"}
{"COMPOUND": "CC1(C)CN(C(=O)c2ccc(F)c(F)c2)C=C(C(=O)OC(CF)CF)c2[nH]c3ccccc3c21 [Example 136]", "Emax": "> 100%"}
{"COMPOUND": "CC1(C)CN(C(=O)c2ccc(F)c(F)c2)C=C(C(=O)CCl)c2[nH]c3ccccc3c21 [Example 121]", "Emax": "< 40%"}
{"COMPOUND": "CC(C)OC(=O)C1=CN(C(=O)c2cccc(CN3CCN(C(=O)C(C)C)CC3)c2)CC(C)(C)c2c1[nH]c1ccccc21 [Example 174]", "Emax": "> 100%"}
{"COMPOUND": "CC(C)OC(=O)C1=CN(C(=O)NCc2ccccc2)CC(C)(C)c2c1[nH]c1ccccc21 [Example 49]", "Emax": "80 to 100%"}
{"COMPOUND": "CC(C)OC(=O)C1=CN(C(=O)N2CCN(C)CC2)CC(C)(C)c2c1[nH]c1ccc(F)cc21 [Example 32]", "Emax": "> 100%"}
